Experiment: protein stability index of a GFP-peptide fusion (yeast GPS) (PSI 1-4); higher = more stable; sorted into four equal gates, so the index is relative within each strain
Conditions: ubr1∆
Criterion: protein stability index meeting or surpassing 3. Met: met. Not met: not met.

> print(dat)
               sequence.code  classification
1   LADSLDRCVDPEDPYFN [DIS3]             met
2   LLSSSNFEATKKSVLKQ [COR1]         not met
3   GFIENCNGSALVEARSL [MTR3]         not met
4  EDNNDAVNSIMALKFVS [ECM29]             met
5   EEVEDQINPTRETNDDI [SNF2]         not met

API: above_or_equal(metric=protein stability index, cutoff=3) for item ERAELETDEYISYTSHI [RPN1]
met

Field entry: DDTKNQDSMSKGTGEES [YGR119C/NUP57]
met

Try this sequence too: SNTYKEERSNNLLTPQP [MCD1]
met

Same read-out for QLEGFESRKAFFLGYMI [RPB2] ?
not met

Lookup NGQRSNSIRAREVENSV [SMC1]
met

Also, LLTSAGCKNGSFTLLNQ [NUT1] please.
not met

What do we get for KLLLLRINSTDEDLHEF [SRB8] ?
met

Then FFEMLISKSLTFSQESG [RRI2] ?
not met
